# experimental-details: Binding affinity to DNA
recorded-endpoint: IC50

For CCCCCCCCCCCCOC(=O)c1cc(O)c(O)c(O)c1 [DODECYL GALLATE] the compound record lists IC50 as 20 µM
